The reported measurements were obtained from patent US11312719B2.

Record type: pIC50 measurement. Applies to: human A2b adenosine receptor (Homo sapiens (Human), UniProt P29275)
pIC50: −log10 of the molar value.
metric name: pIC50

Previously resolved entries follow.
COc1cc2nc(N)n3nc([C@@H]4CC[C@H](C)N(c5cnn(CC(C)(C)O)c5)C4)nc3c2cc1F [Example 109]: 8.11
COc1cc2nc(N)n3nc([C@@H]4CCCN(c5cn(CC(C)(C)O)nc5C)C4)nc3c2cc1F [Example 9]: 6.87

[P] COc1cc2nc(N)n3nc(C4CCCN(c5cnn(CC(C)(C)O)c5)C4=O)nc3c2cc1F (racemic) [Example 139]
[Q] Cn1cc(N2CCCC(c3nc4c5cc(F)cc(F)c5nc(N)n4n3)C2)cn1 (single isomer, unassigned) [Example 103]
**Q:** Of P and Q , which one carries the higher reported pIC50? Field: selected label. Fill in the label of the entry you choose.
**A:** Q

----------
target entity: human A2A receptors (Homo sapiens (Human))
Sequence (P29274 whole entry): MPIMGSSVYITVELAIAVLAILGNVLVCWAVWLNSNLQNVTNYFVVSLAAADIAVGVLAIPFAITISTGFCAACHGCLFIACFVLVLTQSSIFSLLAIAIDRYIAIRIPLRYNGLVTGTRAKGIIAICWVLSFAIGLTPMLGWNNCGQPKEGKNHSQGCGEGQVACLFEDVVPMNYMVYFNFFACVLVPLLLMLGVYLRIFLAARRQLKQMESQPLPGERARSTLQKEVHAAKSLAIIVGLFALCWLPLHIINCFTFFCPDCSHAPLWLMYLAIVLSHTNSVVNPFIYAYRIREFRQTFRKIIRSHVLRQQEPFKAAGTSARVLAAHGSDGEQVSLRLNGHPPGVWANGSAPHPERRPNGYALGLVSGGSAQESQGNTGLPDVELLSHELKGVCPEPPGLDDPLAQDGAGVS
measurement protocol: A2A antagonism in cAMP cell-based assay (LANCE cAMP, HEK293)
measurement setup: HEK293 cells expressing human A2A receptor
Experimental: Measurement of A2A and A2B Antagonism in cAMP Cell-Based Assay The ability of compounds to antagonize human A2A and A2B adenosine receptors was determined using a kit to measure changes in intracellular cyclic AMP levels (LANCE cAMP 384 Kit, Perkin Elmer, Cat. No. AD0264). […]
metric name: IC50 (nM)

CC1CCC(c2nc3c4cc(F)cc(F)c4nc(N)n3n2)CN1c1cnn(CC(C)(O)CO)c1 (single isomer, unassigned) [Example 258]: 2.3
COc1cc2nc(N)n3nc(C4CCC(C)N(c5cnn(CC6(O)CC6)c5)C4)nc3c2cc1F (single isomer, unassigned) [Example 273]: 1.2
COc1cc(F)cc2c1nc(N)n1nc(C3CC(C)CN(c4cnn(CC(C)(C)O)c4C)C3)nc21 (single isomer, unassigned) [Example 174]: 0.6
Cc1nn(C(C)C(C)O)cc1N1CCC[C@@H](c2nc3c4cc(F)cc(F)c4nc(N)n3n2)C1 (single isomer, unassigned) [Example 192]: 0.8

[P] CC(O)C(C)n1cc(N2CCC[C@@H](c3nc4c5cc(F)cc(F)c5nc(N)n4n3)C2)cn1 (single isomer, unassigned) [Example 204]
[Q] COc1cc2nc(N)n3nc([C@@H]4C[C@H](C)CN(c5cnn(CC(C)(C)O)c5)C4)nc3c2cc1F (single isomer, unassigned) [Example 157]
[R] COc1cc2nc(N)n3nc([C@@H]4CCCN(c5cnn(C(C)(C)C(C)O)c5)C4)nc3c2cc1F (single isomer, unassigned) [Example 242]
[S] COc1cc2nc(N)n3nc(C4CCC(C)N(c5cnn(C(C)C(C)O)c5)C4)nc3c2cc1F (single isomer, unassigned) [Example 237]
[T] COc1cc2nc(N)n3nc([C@@H]4CCCN(c5cnn(C(C)C(C)O)c5C)C4)nc3c2cc1F (single isomer, unassigned) [Example 195]
**Q:** Sort low-to-high on IC50, please. Please list the labels in the order you were asked to rank them.
**A:** S, R, T, P, Q
(S: 0.8 nM, R: 2 nM, T: 3.4 nM, P: 7.8 nM, Q: 33.4 nM)

[1] CC1CC(c2nc3c4cc(F)cc(F)c4nc(N)n3n2)CN(c2cnn(CC(C)(C)O)c2)C1 (single isomer, unassigned) [Example 163]
[2] COc1cc(F)cc2c1nc(N)n1nc([C@@H]3CCCN(c4cnn(C(C)C(C)O)c4C)C3)nc21 (single isomer, unassigned) [Example 194]
**Q:** Short answer wanted: higher IC50, 1 or 2 ? I would appreciate it if you answered with the label of your choice.
**A:** 1
(1: 36 nM, 2: 1.7 nM)
